Assay: Half life in rat 10 mg/kg, iv
Type: ADME, organism-based
Set-up: dose 10 mg/kg, route intravenous
Details: in vivo
TEST_READOUT: half-life (h)

1) CCOC(=O)N[C@@H]1CC[C@@H]2[C@@H](C1)C[C@H]1C(=O)O[C@H](C)[C@H]1[C@H]2/C=C/c1ccc(-c2cccc(F)c2)cn1	5.1

###

Target: Proteinase-activated receptor 1 (Homo sapiens, UniProt P25116)
Sequence (P25116 whole entry): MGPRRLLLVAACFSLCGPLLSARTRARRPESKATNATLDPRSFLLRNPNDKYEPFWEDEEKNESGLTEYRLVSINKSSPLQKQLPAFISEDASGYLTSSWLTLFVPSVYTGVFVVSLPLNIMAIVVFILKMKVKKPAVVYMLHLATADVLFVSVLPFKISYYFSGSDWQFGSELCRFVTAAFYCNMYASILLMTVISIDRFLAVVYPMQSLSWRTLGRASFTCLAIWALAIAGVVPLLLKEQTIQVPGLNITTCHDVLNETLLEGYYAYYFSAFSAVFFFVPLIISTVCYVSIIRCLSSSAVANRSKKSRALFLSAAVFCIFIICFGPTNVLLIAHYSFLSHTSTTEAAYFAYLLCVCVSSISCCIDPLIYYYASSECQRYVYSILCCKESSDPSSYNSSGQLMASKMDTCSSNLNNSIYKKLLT
Assay: Antagonist activity at human PAR1 in HCASMC assessed as inhibition of thrombin-induced calcium efflux
Type: functional
TEST_READOUT: Ki

1. CCOC(=O)N[C@@H]1CC[C@@H]2[C@@H](C1)C[C@H]1C(=O)O[C@H](C)[C@H]1[C@H]2/C=C/c1ccc(-c2cccc(F)c2)cn1 [VORAPAXAR]	1.1 nM

###

Experiment: AUC (0 to 24 hrs) in rat 10 mg/kg, po
Format: ADME, organism-based
Design: time < 24 hr, dose 10 mg/kg, route oral
Settings: plasma
TEST_READOUT: AUC(0-t) at 24 h (µM·h)

1) CCOC(=O)N[C@@H]1CC[C@@H]2[C@@H](C1)C[C@H]1C(=O)O[C@H](C)[C@H]1[C@H]2/C=C/c1ccc(-c2cccc(F)c2)cn1	5.3

###

Target: Proteinase-activated receptor 1 (Homo sapiens, UniProt P25116)
Assay: Displacement of [3H]haTRAP from PAR1 in human platelets
pKi: −log10 of the molar value.
Classify as follows. Reported pKi greater than or equal to 8: true (1). Reported pKi below: false (0).

1. CC(=O)N[C@@H]1CC[C@@H]2[C@@H](C1)C[C@H]1C(=O)O[C@H](C)[C@H]1[C@H]2/C=C/c1ccc(-c2cccc(C(F)(F)F)c2)cn1	false (0)
2. CCOC(=O)N[C@@H]1CC[C@@H]2[C@@H](C1)C[C@H]1C(=O)O[C@H](C)[C@H]1[C@H]2/C=C/c1ccc(-c2cccc(C#N)c2)cn1	true (1)
3. CCOC(=O)N(C)[C@@H]1CC[C@@H]2[C@@H](C1)C[C@H]1C(=O)O[C@H](C)[C@H]1[C@H]2/C=C/c1ccc(-c2cccc(C(F)(F)F)c2)cn1	true (1)

###

Assay: Cmax in monkey 1 mg/kg, po
Assay type: ADME, organism-based, Macaca mulatta
Parameters: dose 1 mg/kg, route oral
Conditions: rhesus monkey, in vivo
TEST_READOUT: Cmax (nM)

1) CCOC(=O)N[C@@H]1CC[C@@H]2[C@@H](C1)C[C@H]1C(=O)O[C@H](C)[C@H]1[C@H]2/C=C/c1ccc(-c2cccc(F)c2)cn1	1300

###

Test: Oral bioavailability in rat 10 mg/kg
Type: ADME, organism-based
Details: in vivo
TEST_READOUT: bioavailability

1. CCOC(=O)N[C@@H]1CC[C@@H]2[C@@H](C1)C[C@H]1C(=O)O[C@H](C)[C@H]1[C@H]2/C=C/c1ccc(-c2cccc(F)c2)cn1	33%

###

Experiment: Oral bioavailability in monkey 1 mg/kg
Format: ADME, organism-based, Macaca mulatta
Details: rhesus monkey, in vivo
TEST_READOUT: bioavailability

1. CCOC(=O)N[C@@H]1CC[C@@H]2[C@@H](C1)C[C@H]1C(=O)O[C@H](C)[C@H]1[C@H]2/C=C/c1ccc(-c2cccc(F)c2)cn1	86%

###

pKi: recorded values
Target: Proteinase-activated receptor 1 (Homo sapiens)
Experiment: Displacement of [3H]haTRAP from PAR1 in human platelets
pKi: −log10 of the molar value.
TEST_READOUT: pKi

1) CCC(=O)N[C@@H]1CC[C@@H]2[C@@H](C1)C[C@H]1C(=O)O[C@H](C)[C@H]1[C@H]2/C=C/c1ccc(-c2cccc(F)c2)cn1	8.19
2) CCNC(=O)N[C@@H]1CC[C@@H]2[C@@H](C1)C[C@H]1C(=O)O[C@H](C)[C@H]1[C@H]2/C=C/c1ccc(-c2cccc(F)c2)cn1	8.32
3) C[C@H]1OC(=O)[C@@H]2C[C@@H]3C[C@H](N)CC[C@H]3[C@H](/C=C/c3ccc(-c4cccc(F)c4)cn3)[C@H]12	7.70
4) CCOC(=O)N(C)[C@@H]1CC[C@@H]2[C@@H](C1)C[C@H]1C(=O)O[C@H](C)[C@H]1[C@H]2/C=C/c1ccc(-c2cccc(F)c2)cn1	8.39
5) CCOC(=O)N[C@@H]1CC[C@@H]2[C@@H](C1)C[C@H]1C(=O)O[C@H](C)[C@H]1[C@H]2/C=C/c1ccc(-c2cccc(C(N)=O)c2)cn1	6.44
6) CCCN(C(=O)OCC)[C@@H]1CC[C@@H]2[C@@H](C1)C[C@H]1C(=O)O[C@H](C)[C@H]1[C@H]2/C=C/c1ccc(-c2cccc(F)c2)cn1	7.05

###

Experiment: AUC (0 to 24 hrs) in cynomolgus monkey at 1 mg/kg, po after >24 hrs
Format: ADME, organism-based, Macaca fascicularis
Parameters: time < 24 hr, dose 1 mg/kg, route oral
Details: plasma
TEST_READOUT: AUC(0-t) at 24 h (µM·h)

1) CCOC(=O)N[C@@H]1CC[C@@H]2[C@@H](C1)C[C@H]1C(=O)O[C@H](C)[C@H]1[C@H]2/C=C/c1ccc(-c2cccc(C(F)(F)F)c2)cn1	5.03

###

Test: Cmax in cynomolgus monkey at 1 mg/kg, po after >24 hrs
Type: ADME, organism-based, Macaca fascicularis
Parameters: dose 1 mg/kg, route oral
Settings: in vivo
TEST_READOUT: Cmax (nM)

1. CCOC(=O)N[C@@H]1CC[C@@H]2[C@@H](C1)C[C@H]1C(=O)O[C@H](C)[C@H]1[C@H]2/C=C/c1ccc(-c2cccc(C(F)(F)F)c2)cn1	330

###

Assay: Oral absorption in monkey 1 mg/kg, po
Conditions: rhesus monkey, in vivo, read-out: Fabs
TEST_READOUT: Fa (%)

1. CCOC(=O)N[C@@H]1CC[C@@H]2[C@@H](C1)C[C@H]1C(=O)O[C@H](C)[C@H]1[C@H]2/C=C/c1ccc(-c2cccc(F)c2)cn1 [VORAPAXAR]	82

###

Assay: AUC (0 to 24 hrs) in cynomolgus monkey at 1 mg/kg, po after 24 hrs
Type: ADME, organism-based, Macaca fascicularis
Parameters: time < 24 hr, dose 1 mg/kg, route oral
Settings: plasma
TEST_READOUT: AUC(0-t) at 24 h (µM·h)

1. CNC(=O)N[C@@H]1CC[C@@H]2[C@@H](C1)C[C@H]1C(=O)O[C@H](C)[C@H]1[C@H]2/C=C/c1ccc(-c2cccc(F)c2)cn1	2.63
2. CCOC(=O)N[C@@H]1CC[C@@H]2[C@@H](C1)C[C@H]1C(=O)O[C@H](C)[C@H]1[C@H]2/C=C/c1ccc(-c2cccc(C)c2F)cn1	0.13
3. C[C@H]1OC(=O)[C@@H]2C[C@@H]3C[C@H](NC(=O)C4CC4)CC[C@H]3[C@H](/C=C/c3ccc(-c4cccc(F)c4)cn3)[C@H]12	5.53
4. CCC(=O)N[C@@H]1CC[C@@H]2[C@@H](C1)C[C@H]1C(=O)O[C@H](C)[C@H]1[C@H]2/C=C/c1ccc(-c2cccc(F)c2)cn1	11.4

###

Experiment: Cmax in cynomolgus monkey at 1 mg/kg, po after 24 hrs
Assay type: ADME, organism-based, Macaca fascicularis
Design: dose 1 mg/kg, route oral
Conditions: in vivo
TEST_READOUT: Cmax (nM)

1. CCC(=O)N[C@@H]1CC[C@@H]2[C@@H](C1)C[C@H]1C(=O)O[C@H](C)[C@H]1[C@H]2/C=C/c1ccc(-c2cccc(F)c2)cn1	750
2. CNC(=O)N[C@@H]1CC[C@@H]2[C@@H](C1)C[C@H]1C(=O)O[C@H](C)[C@H]1[C@H]2/C=C/c1ccc(-c2cccc(F)c2)cn1	260
3. CCOC(=O)N[C@@H]1CC[C@@H]2[C@@H](C1)C[C@H]1C(=O)O[C@H](C)[C@H]1[C@H]2/C=C/c1ccc(-c2cccc(C)c2F)cn1	20
4. C[C@H]1OC(=O)[C@@H]2C[C@@H]3C[C@H](NC(=O)C4CC4)CC[C@H]3[C@H](/C=C/c3ccc(-c4cccc(F)c4)cn3)[C@H]12	390

###

Target: Proteinase-activated receptor 1 (Homo sapiens)
Assay: Displacement of [3H]haTRAP from PAR1 in human platelets
pKi: −log10 of the molar value.
TEST_READOUT: pKi

1) CCOC(=O)N[C@@H]1CC[C@@H]2[C@@H](C1)C[C@H]1C(=O)O[C@H](C)[C@H]1[C@H]2/C=C/c1ccc(-c2cccc(F)c2)cn1	8.09
2) C[C@H]1OC(=O)[C@@H]2C[C@@H]3C[C@H](NC(=O)C4CC4)CC[C@H]3[C@H](/C=C/c3ccc(-c4cccc(F)c4)cn3)[C@H]12	8.19
3) COC(=O)N[C@@H]1CC[C@@H]2[C@@H](C1)C[C@H]1C(=O)O[C@H](C)[C@H]1[C@H]2/C=C/c1ccc(-c2cccc(F)c2)cn1	8.21
4) CNC(=O)N[C@@H]1CC[C@@H]2[C@@H](C1)C[C@H]1C(=O)O[C@H](C)[C@H]1[C@H]2/C=C/c1ccc(-c2cccc(F)c2)cn1	8.36
5) CCCOC(=O)N[C@@H]1CC[C@@H]2[C@@H](C1)C[C@H]1C(=O)O[C@H](C)[C@H]1[C@H]2/C=C/c1ccc(-c2cccc(F)c2)cn1	7.77
6) CCOC(=O)N[C@@H]1CC[C@@H]2[C@@H](C1)C[C@H]1C(=O)O[C@H](C)[C@H]1[C@H]2/C=C/c1ccc(-c2cccc(C)c2F)cn1	7.96
7) CCOC(=O)N[C@@H]1CC[C@@H]2[C@@H](C1)C[C@H]1C(=O)O[C@H](C)[C@H]1[C@H]2/C=C/c1ccc(-c2cccc(OC)c2)cn1	8.23
8) C[C@H]1OC(=O)[C@@H]2C[C@@H]3C[C@H](NS(C)(=O)=O)CC[C@H]3[C@H](/C=C/c3ccc(-c4cccc(F)c4)cn3)[C@H]12	7.96
9) CCOC(=O)N[C@@H]1CC[C@@H]2[C@@H](C1)C[C@H]1C(=O)O[C@H](C)[C@H]1[C@H]2/C=C/c1ccc(-c2cccc(Cl)c2)cn1	7.96
10) C[C@H]1OC(=O)[C@@H]2C[C@@H]3C[C@H](NC(=O)OC(C)(C)C)CC[C@H]3[C@H](/C=C/c3ccc(-c4cccc(C#N)c4)cn3)[C@H]12	7.36
11) CCOC(=O)N[C@@H]1CC[C@@H]2[C@@H](C1)C[C@H]1C(=O)O[C@H](C)[C@H]1[C@H]2/C=C/c1ccc(-c2ccccc2F)cn1	7.96
